Can you tell me self-cleavage kobs at 2500 uM GlcN6P for the items I'm about to list?
B1: glmS ribozyme (parent)
chain: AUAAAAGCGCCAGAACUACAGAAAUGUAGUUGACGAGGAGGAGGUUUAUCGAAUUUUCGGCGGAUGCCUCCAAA

variants of: B1; experiment: self-cleavage kobs at 2500 uM GlcN6P; higher = faster cleavage; RNA array; conditions: with glucosamine-6-phosphate
Fewer inactive variants are shown than the library holds.
Record the value in s⁻¹, omitting the unit from your answer.

Summary for this variant, AUAAAAGCGCCAGAACUACAGAAAUGUAGUUAACGAGGAGGAGGUUUAUCGAAUUUUGGGCGGAUGCCUCCAAA [G32A C58G] : self-cleavage kobs at 2500 uM GlcN6P is 5.76e-05

For record AUAAAAGCGCCUGAACUACAGAAAUGUAGUUGUCGAGGAUGAGGUUUAUCGAAUUUUCGGCGGAUGCCUCCAAA [A12U A33U G40U] the listed self-cleavage kobs at 2500 uM GlcN6P is 3.71e-05

# variant AUAAAAGCGCCAGAACUACAGAAAUGUAGUUGACGAGGGGGAGGUUGAUCGAAUUUUCGGCGGAUGCCUCCAAA [A39G U47G] ; its self-cleavage kobs at 2500 uM GlcN6P = 0.0155

For AUAAAAGCGCCAUAACUACAGAAAUGUAGUUGACGAGGAGGAGGUUUAUCGAAUUUUCGGCGGAGGCCUCCAAA [G13U U65G] the variant record lists self-cleavage kobs at 2500 uM GlcN6P as 0.000136

Record AUAAAAGCGCCAUAGCUACAGAAAUGUAGUUAACGAGGAGGAGGUUUAUCGAAUUUUCGGCGGAUGCCUGCAAA [G13U A15G G32A C70G] , field self-cleavage kobs at 2500 uM GlcN6P: 8.14e-05

Form: variant = AUAAAAGCGCCAGAACUACAGAAAUGUAGUUGACGAGGAGGAGGUUUAUCGAAAUUUCGGCGGAUGCCUUCAAA [U54A C70U] ; self-cleavage kobs at 2500 uM GlcN6P = 0.00404

For record AUAAAAGCGCCAGAACUACAGAAAUGUAGUUAACGAGGAGGAGGUUUAUCGAAUUUUCGGCGGAUGCCGCCAAA [G32A U69G] the listed self-cleavage kobs at 2500 uM GlcN6P is 5.99e-05

Entry AUAAAAGCGCUAGAACUACAGAAAUGUAGUUGACGAGGAAGAGGUUUAUCGAAUUUUCGGCGGAUGCCUCCAAA [C11U G40A] , self-cleavage kobs at 2500 uM GlcN6P reported as 0.000128

So, AUAAAAGCGCCAGAACUACAGAAAUGUAGUUGACGAGGAGGAGGUUUAUCGAACUUUCGGCGGACGCCUCCAAA [U54C U65C] ? Its self-cleavage kobs at 2500 uM GlcN6P was 0.000743
